# Lookup of reported herbicidal action MATIN keyed by entry
Tested on: Matricaria inodora
Assay: Post-emergence herbicidal action, MATIN
Format: in vivo
Set-up: key: % herbicidal action vs untreated; 100 = plants died, 0 = like control
Conditions: post-emergence, dosage 80 g/ha
Numbers only; they are read as %.

// below: answered compounds
Lab note: measured herbicidal action MATIN of CCn1nnnc1NC(=O)c1ccc(C(F)F)c(CS(C)(=O)=O)c1Cl [Example 2-322] was 90

Lab note: measured herbicidal action MATIN of CCn1nnnc1NC(=O)c1ccc(C(F)(F)F)c(CSC)c1Cl [Example 2-296] was 90

Lab note: measured herbicidal action MATIN of Cn1nnnc1NC(=O)c1ccc(C(F)(F)F)c(CSC2CC2)c1Cl [Example 1-302] was 90

More entries:
Lab note: measured herbicidal action MATIN of CSCc1c(C(F)(F)F)ccc(C(=O)Nc2nnnn2C)c1C [Example 1-83] was 100

Lab note: measured herbicidal action MATIN of C=CCSCc1c(C(F)(F)F)ccc(C(=O)Nc2nnnn2C)c1Cl [Example 1-308] was 100
